Every entry's value here was drawn from PubChem BioAssay AID1159580.

- METHOD DESCRIPTION: chemical genetic growth profiling, strain panel (AID 1159580);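 further: tested at 20 µM; growth read once vehicle control cultures reached saturation at 30 °C; lower values mean less growth of the strain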
- CONDITIONS USED: S. cerevisiae deletion strains, growth OD, locus YOR106W, strain vam3, stronger effect = lower value
The campaign covered roughly 5,500 compounds. About 2,000 (36%) were called active. About 18% were inconclusive and are not listed. This is one part of the list.
Under this convention, Met denotes normalized growth strictly below 1 and Not met denotes normalized growth at or above 1.

O=c1cc(-c2cc(O)c(O)c(O)c2)oc2cc(O)cc(O)c12	Met
COc1ccc(C(=O)N2CCCC2=O)cc1	Met
CC(=O)Nc1ccccc1	Met
C[C@H](CCC(=O)O)[C@H]1CCC2C3C(CC[C@@]21C)[C@@]1(C)CC[C@@H](O)C[C@H]1C[C@H]3O (some centres not stated)	Met
CC(CCC(=O)O)[C@H]1CCC2C3CC[C@@H]4C[C@H](O)CC[C@]4(C)C3CC[C@@]21C (some centres not stated)	Met
CC(CCC(=O)O)[C@H]1CCC2C3CC[C@@H]4C[C@H](O)CC[C@]4(C)C3C[C@H](O)[C@@]21C (some centres not stated)	Met

(Q) Consider `CN(C)C(=O)Nc1ccc(Cl)c(Cl)c1` . Does its normalized growth lie strictly below 1?
(A) Met

(Q) Consider CC(CCC(=O)O)[C@H]1CCC2C3C[C@H](O)[C@@H]4C[C@H](O)CC[C@]4(C)C3CC[C@@]21C (some centres not stated) . Does its normalized growth lie strictly below 1?
(A) Met

(Q) Consider `O=c1cc(-c2ccc(O)cc2)oc2cc(O)ccc12` . Does its normalized growth lie strictly below 1?
(A) Met

(Q) Consider OC[C@H]1OC([S-])[C@H](O)[C@@H](O)[C@@H]1O.[Au+] (some centres not stated) . Does its normalized growth lie strictly below 1?
(A) Not met

(Q) Consider CC(CN(C)C)CN1c2ccccc2Sc2ccccc21 (configuration not stated) . Does its normalized growth lie strictly below 1?
(A) Not met

###

- METHOD DESCRIPTION: chemical genetic growth profiling, strain panel (AID 1159580);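 further: tested at 20 µM; growth read once vehicle control cultures reached saturation at 30 °C; lower values mean less growth of the strain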
- CONDITIONS USED: S. cerevisiae deletion strains, growth OD, locus YKL067W, strain YNK1, stronger effect = lower value
About 2,000 (36%) of roughly 5,500 compounds were called active. Another 18% or so got no clear call; they are omitted. Some of the results follow.
Under this convention, YES denotes normalized growth strictly below 0.9 and NO denotes normalized growth at or above 0.9.

O=C1/C(=C/c2cccs2)COc2ccccc21	YES
Cc1ccc(N2C(=O)CSC2c2ccc(Cl)c(Cl)c2)cc1Cl (stereo not given)	NO
COc1cc(CC/C(C)=N/O)ccc1OCc1ccc(Cl)cc1Cl	NO
O=S(=O)(Nc1ccc(Oc2ccc(OC(F)(F)F)cc2)cc1)c1cccc(Cl)c1	NO
NNC(=O)c1csc(Cc2c(Cl)sc3ccc(Cl)cc23)n1	NO
O=C(Nc1ccc(F)c(Cl)c1)c1ccccc1O	YES
CC1C/C(=N/Nc2ccc(Br)cc2)c2cc(Cl)ccc2S1 (stereo not given)	YES
Oc1ccc(N=Nc2ccccn2)c(O)c1	YES

(Q) Consider `CS(=O)(=O)c1sc(C(=O)Sc2ccc(Cl)cc2)c2c1C=CCC2` . Does its normalized growth lie strictly below 0.9?
(A) YES

(Q) Consider `O=C(CCn1c(=O)oc2ccccc21)Sc1ccc(Cl)cc1Cl` . Does its normalized growth lie strictly below 0.9?
(A) YES

(Q) Consider `O=C(CCn1c(=O)oc2ccccc21)Sc1ccc(C(F)(F)F)cc1` . Does its normalized growth lie strictly below 0.9?
(A) YES
